Source of measurements: patent US12275684B2

assay.notes: Placebo controlled, dose escalation pharmacokinetic study of oral (Z)-Endoxifen capsules (serum endoxifen; incl. accumulation ratios and dose linearity)
Format: in vivo, human
test.settings: female, human, serum, oral, 1 mg; Day 1 hr 1; read-out: Serum concentration, Median
assay.metric: concentration at 1 h (nM)
Please give a number only; it is taken to be in nM.

Q: What measured concentration at 1 h goes with CC/C(=C(\c1ccc(O)cc1)c1ccc(OCCNC)cc1)c1ccccc1 [(Z)-Endoxifen] ?
Result: 2.68

---

assay.notes: Placebo controlled, dose escalation pharmacokinetic study of oral (Z)-Endoxifen capsules (serum endoxifen; incl. accumulation ratios and dose linearity)
Type: in vivo, human
test.settings: female, human, serum, oral, 1 mg, Day 1; 1 mg; N = 5; read-out: Cmax, Median
assay.metric: Cmax (ng/mL)
Please give a number only; it is taken to be in ng/mL.

Q: What measured Cmax goes with CC/C(=C(\c1ccc(O)cc1)c1ccc(OCCNC)cc1)c1ccccc1 [(Z)-Endoxifen] ?
Result: 10
